Provenance of the data: patent US20250154169A1

Test system: HTT mRNA
TEST METHOD NOTES: Splicing RT-qPCR assay, HTT canonical (CJ) and alternative (AJ) junction mRNA
Format: cell-based, human
ASSAY CONDITIONS: Homo sapiens, A673 or K562 cells, 24 hours compound treatment, read-out: HTT AJ (AC50, increase in alternative junction mRNA)
MEASURED QUANTITY: AC50

Cc1cn2nc(NC(=O)c3ccc(N4CCNCC4)c4cc(C)oc34)nc2c(C)n1 = > 10000 nM
Cc1cn2cc(NC(=O)c3ccc(N4CCC(N5CCCC5)C4)c4cc(C)oc34)cc(F)c2n1 (stereo not shown) = 1000 to 10000 nM
Cc1cn2cc(NC(=O)c3ccc(N4C[C@@H](C)N[C@@H](C)C4)c4cn(C)nc34)cc(F)c2n1 = 100 to 1000 nM

Request: Given the molecule CC1=NC2C=C(NC(=O)c3ccc(N(C)C4CCN(C)CC4)c4cn(C)nc34)C=C(F)C2=N1 (stereo not shown) , what is its reported AC50?
Result: 100 to 1000 nM

---

Test system: HTT mRNA
TEST METHOD NOTES: Splicing RT-qPCR assay, HTT canonical (CJ) and alternative (AJ) junction mRNA
Format: cell-based, human
ASSAY CONDITIONS: Homo sapiens, A673 or K562 cells, 24 hours compound treatment, read-out: HTT AJ (AC50, increase in alternative junction mRNA)
Method: Compounds described herein were used to modulate RNA transcript abundance in cells. The expression of a target mRNA was measured by detecting the formation of an exon-exon junction in the canonical transcript (CJ). A compound mediated exon-inclusion event was detected by observing an increase in formation of a new junction with an alternative exon (AJ). Real-time qPCR assays were used to detect these splicing switches and interrogate the potency of various compounds towards different target genes. […]
We begin with a simple list: items and their reported AC50.

Please review the entries below; each comes with its answer.
Cc1cn2cc(NC(=O)c3ccc(N4CC[C@@H](NC5C6COCC65)C4)c4cn(C)nc34)cc(F)c2n1 (stereo partly drawn) = > 10 µM
Cc1cn2cc(NC(=O)c3ccc(N4C[C@H]5CC[C@@H](C4)N5)c4cn(C)nc34)cc(F)c2n1 = 0.1 to 1 µM
Cc1cn2cc(NC(=O)c3ccc(N4CCN[C@@H](C)C4)c4cn(C)nc34)cc(F)c2n1 (single isomer, unassigned) = 0.1 to 1 µM

# input for lookup
Request: // lookup AC50 for Cc1cn2cc(NC(=O)c3ccc(N4CC[C@@H](N5CCOCC5)C4)c4cn(C)nc34)cc(F)c2n1
Result: 0.1 to 1 µM

---

Tested on: Target C mRNA
TEST METHOD NOTES: Splicing RT-qPCR gene panel, Target C canonical junction (CJ) mRNA
Type: cell-based, human
ASSAY CONDITIONS: Homo sapiens, Tables 4A/4B, read-out: Target C (IC50, decrease in CJ mRNA, gene panel)
Catalogue of compounds with associated IC50

Some solved cases for reference:
Cc1cn2cc(NC(=O)c3ccc(N4CCNCC4)c4cn(Cc5cn[nH]c5)nc34)cc(F)c2n1 = > 10 µM
Cc1cn2cc(NC(=O)c3ccc(N4CCC(NCc5ccccn5)CC4)c4cn(C)nc34)cc(F)c2n1 = 1 to 10 µM
COc1c(NC(=O)c2ccc(N3CCNCC3)c3cn(C)nc23)cn2cc(C)nc2c1F = 0.1 to 1 µM

Request: Field request: IC50 | item: CN[C@H]1CCN(c2ccc(C(=O)Nc3cn4cc(C)nc4c(N(C)C)n3)c3nn(C)cc23)C1
Result: > 10 µM

Request: Which IC50 is reported for this compound? Cc1cn2cc(NC(=O)c3ccc(N4CC[C@@H](N)C4)c4cn(C)nc34)cc(F)c2n1
Result: > 10 µM

---

Tested on: MYB mRNA
TEST METHOD NOTES: Splicing RT-qPCR assay, MYB canonical (CJ) and alternative (AJ) junction mRNA
Format: cell-based, human
ASSAY CONDITIONS: Homo sapiens, 24 h, A673 or K562 cells, 24 hours compound treatment, RT-qPCR; read-out: MYB AJ (AC50, increase in alternative junction mRNA)
AC50 for assorted molecules

Observe how each entry below is paired with its result.
CCNC1CCN(c2cc(F)c(C(=O)Nc3cc(F)c4nc(C)cn4c3)c3nn(C)cc23)CC1 [Compound 460] = < 0.1 µM
CCn1cc2c(N3CCC(NCC(C)(C)O)CC3)ccc(C(=O)Nc3cc(F)c4nc(C)cn4c3)c2n1 [Compound 577] = 0.1 to 1 µM
COc1cc(C(=O)Nc2cc(F)c3nc(C)cn3c2)c2nn(C)cc2c1N1CCNCC1 [Compound 311] = 1 to 10 µM
Cc1cn2cc(NC(=O)c3ccc(N4CCN[C@@H](C5CC5)C4)c4cn(C)nc34)cc(F)c2n1 [Compound 606] = 0.1 to 1 µM
CCn1cc2c(N3C[C@H]4CC[C@@H](C3)N4)ccc(C(=O)Nc3cc(F)c4nc(C)cn4c3)c2n1 [Compound 289] = 0.1 to 1 µM

Request: Entry under review: CCNC1CCN(c2ccc(C(=O)Nc3cc(F)c4nc(C)cn4c3)c3nn(CC)cc23)C1 (stereo in doubt) [Compound 400] . Reported AC50?
Result: < 0.1 µM

Request: Quick check: AC50 of CCn1cc2c(N3CCNC(CF)C3)ccc(C(=O)Nc3cc(F)c4nc(C)cn4c3)c2n1 (stereo not shown) [Compound 453] ?
Result: 1 to 10 µM

---

Tested on: MYB mRNA
TEST METHOD NOTES: Splicing RT-qPCR assay, MYB canonical (CJ) and alternative (AJ) junction mRNA
Type: cell-based, human
ASSAY CONDITIONS: Homo sapiens, 24 h, A673 or K562 cells, 24 hours compound treatment, RT-qPCR; read-out: MYB CJ (IC50, decrease in canonical junction mRNA)
MEASURED QUANTITY: IC50

# count of solved cases: 5
Cc1cn2cc(NC(=O)c3ccc(N4CCC(NC5CC5)C4)c4cn(C)nc34)cc(F)c2n1 (centres unmarked) = < 100 nM
Cc1cn2cc(NC(=O)c3ccc(N4CCNCC4)c4cn(Cc5ccc6[nH]ncc6c5)nc34)cc(F)c2n1 = 1000 to 10000 nM
Cc1nnc2n1CC(NC(=O)c1ccc(N3CCNCC3)c3cn(C)nc13)CC2 (centres unmarked) = > 10000 nM
CCn1cc2c(N3CCN[C@@H](CO)C3)ccc(C(=O)Nc3cc(F)c4nc(C)cn4c3)c2n1 = 100 to 1000 nM
CCn1cc2c(N3CCC(C)(NC)CC3)ccc(C(=O)Nc3cc(F)c4nc(C)cn4c3)c2n1 = < 100 nM

Request: Param item = Cc1cn2cc(NC(=O)c3ccc(N4CCNCC4)c4c3nnn4C)cc(F)c2n1 ; retrieve measured IC50.
Result: 100 to 1000 nM

Request: Form field: reported IC50 of Cc1cn2cc(NC(=O)c3ccc(N4CCC(N(C)C)C4)c4cn(C)nc34)cc(F)c2n1 (centres unmarked)
Result: < 100 nM

Request: What measured IC50 goes with CN[C@@H]1CCN(c2ccc(C(=O)Nc3cn4cc(C)nc4c(N4CCOCC4)n3)c3nn(C)cc23)C1 ?
Result: > 10000 nM

---

Tested on: MYB mRNA
TEST METHOD NOTES: Splicing RT-qPCR assay, MYB canonical (CJ) and alternative (AJ) junction mRNA
Format: cell-based, human
ASSAY CONDITIONS: Homo sapiens, 24 h, A673 or K562 cells, 24 hours compound treatment, RT-qPCR; read-out: MYB AJ (AC50, increase in alternative junction mRNA)
MEASURED QUANTITY: AC50

C=CCN[C@@H]1CCN(c2ccc(C(=O)Nc3cc(F)c4nc(C)cn4c3)c3nn(C)cc23)C1 [Compound 554] = < 100 nM

Request: Short answer please: AC50, MYB mRNA, entry COc1c(NC(=O)c2ccc(N3CCNCC3)c3cn(C)nc23)cn2cc(C)nc2c1F [Compound 343]
Result: < 100 nM

Request: Form entry - test system: MYB mRNA; read-out: AC50; molecule: Cc1cn2cc(NC(=O)c3ccc(N4CCNCC4)c4cc(C)oc34)cc(C)c2n1 [Compound 267]
Result: 100 to 1000 nM

Request: Value wanted: AC50 (MYB mRNA) of entry Cc1cn2cc(NC(=O)c3ccc(N4CC[C@@H](Nc5ccccc5)C4)c4cn(C)nc34)cc(F)c2n1 [Compound 579]
Result: > 10000 nM

Request: Lab note: need AC50 with MYB mRNA for entry CCn1cc2c(N3CCNCC3)ccc(C(=O)Nc3cc(F)c4nc(C)c(F)n4c3)c2n1 [Compound 565] , please look it up.
Result: > 10000 nM

Request: What AC50 appears in the records for this molecule with MYB mRNA? Cc1cn2cc(NC(=O)c3ccc(N4CC[C@@H](N(C)C)C4)c4cn(C)nc34)cc(F)c2n1 (single isomer, unassigned) [Compound 350]
Result: < 100 nM

Request: AC50, test system MYB mRNA, entry Cc1cn2cc(NC(=O)c3ccc(N4CC[C@@H](NC5(CO)CC5)C4)c4cn(C)nc34)cc(F)c2n1 [Compound 643]
Result: 100 to 1000 nM
